# tested-system: PI3K α (Homo sapiens (Human))
pIC50: −log10 of the molar value.
measured-property: pIC50

Solved entries (count: 5):
[
  {
    "compound-string": "C[C@H](NC(=O)c1c(N)nn2cccnc12)c1cc2cccc(C#CC3CCCC3)c2c(=O)n1-c1ccccc1",
    "pIC50": "5.00 to 5.30"
  },
  {
    "compound-string": "C[C@H](NC(=O)c1c(N)nn2cccnc12)c1cc2cccc(C#Cc3cnn(C)c3)c2c(=O)n1C",
    "pIC50": "5.30 to 6.00"
  },
  {
    "compound-string": "COc1cnc(C(=O)N[C@@H](C)c2cc3cccc(C#Cc4cnn(C)c4)c3c(=O)n2-c2ccccc2)c(N)n1",
    "pIC50": "5.00 to 5.30"
  },
  {
    "compound-string": "C[C@H](NC(=O)c1c(N)nn2cccnc12)c1nc2cccc(C#Cc3cnn(C)c3)c2c(=O)n1C",
    "pIC50": "5.30 to 6.00"
  },
  {
    "compound-string": "C[C@H](NC(=O)c1c(N)nn2cccnc12)c1cc2cccc(N)c2c(=O)n1-c1ccccc1",
    "pIC50": "5.00 to 5.30"
  }
]

input: Which pIC50 is reported with PI3K α (Homo sapiens (Human)) for this entry: C[C@H](NC(=O)c1c(N)nn2cccnc12)c1cc2cccc(C#CC3CCOCC3)c2c(=O)n1-c1ccccc1 ?
output: 5.00 to 5.30

input: Which pIC50 is reported with PI3K α (Homo sapiens (Human)) for this entry: CNS(=O)(=O)CCn1c([C@H](C)NC(=O)c2c(N)nn3cccnc23)cc2cccc(C#Cc3cnn(C)c3)c2c1=O ?
output: 5.30 to 6.00

----------
# protocol-summary: Mouse pharmacokinetics, oral single and repeat dose
# Type: in vivo
# condition-details: female, C57, mouse, plasma, po, 2 mg/kg, female C57 mice, 2 mg/kg PO NMP; read-out: AUC0-8
measured-property: AUC(0-t) (ng·h/mL)
Your answer should be a plain number; it is taken to be in ng·h/mL.

input: What value of AUC(0-t) has been recorded for this entry: Cc1c(C#Cc2cccc3nc([C@H](C)NC(=O)c4c(N)nn5cccnc45)n(-c4ccccc4)c(=O)c23)cnn1C [Compound 88]
output: 3890

----------
# tested-system: PI3K-γ in RAW264.7 macrophages (Mus musculus (Mouse), UniProt Q9JHG7)
# Sequence (Q9JHG7 whole entry): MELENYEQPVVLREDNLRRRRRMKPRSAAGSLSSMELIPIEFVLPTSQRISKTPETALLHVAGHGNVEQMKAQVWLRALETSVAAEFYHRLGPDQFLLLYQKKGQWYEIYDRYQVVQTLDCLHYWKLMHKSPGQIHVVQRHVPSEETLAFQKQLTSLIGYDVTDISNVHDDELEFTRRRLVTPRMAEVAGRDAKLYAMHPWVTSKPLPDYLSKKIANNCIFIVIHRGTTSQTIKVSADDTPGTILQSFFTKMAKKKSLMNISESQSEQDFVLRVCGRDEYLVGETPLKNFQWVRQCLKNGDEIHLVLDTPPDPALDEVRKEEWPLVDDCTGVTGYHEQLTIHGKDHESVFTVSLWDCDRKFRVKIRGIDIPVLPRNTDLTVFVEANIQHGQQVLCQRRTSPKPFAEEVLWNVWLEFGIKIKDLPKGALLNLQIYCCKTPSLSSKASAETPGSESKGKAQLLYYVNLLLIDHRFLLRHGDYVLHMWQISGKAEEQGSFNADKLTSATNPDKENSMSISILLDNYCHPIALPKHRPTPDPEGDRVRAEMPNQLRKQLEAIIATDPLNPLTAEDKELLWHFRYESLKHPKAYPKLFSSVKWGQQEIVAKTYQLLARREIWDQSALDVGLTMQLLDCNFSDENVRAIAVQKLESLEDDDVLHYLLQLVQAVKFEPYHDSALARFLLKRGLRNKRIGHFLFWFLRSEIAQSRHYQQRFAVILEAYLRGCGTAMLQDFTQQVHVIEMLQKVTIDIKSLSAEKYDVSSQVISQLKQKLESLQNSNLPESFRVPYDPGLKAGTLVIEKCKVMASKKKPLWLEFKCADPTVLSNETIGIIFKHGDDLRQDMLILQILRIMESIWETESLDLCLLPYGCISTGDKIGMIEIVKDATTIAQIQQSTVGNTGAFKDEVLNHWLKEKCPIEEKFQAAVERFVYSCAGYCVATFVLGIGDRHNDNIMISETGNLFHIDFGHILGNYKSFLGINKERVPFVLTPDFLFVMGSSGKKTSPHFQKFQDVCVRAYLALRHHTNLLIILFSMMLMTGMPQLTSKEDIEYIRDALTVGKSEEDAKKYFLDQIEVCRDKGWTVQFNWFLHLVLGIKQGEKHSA
# protocol-summary: Raw264.7 p110 γ assay (PI3K-γ selective cellular assay, C5a-stimulated phospho-AKT)
# Type: cell-based

[
  {
    "compound-string": "C[C@H](NC(=O)c1c(N)nn2cccnc12)c1cc2cccc(C#Cc3nccs3)c2c(=O)n1-c1ccccc1",
    "RAJIδ/Raw264.7 γ IC50 (selectivity)": "X (X = 10 to <50)"
  },
  {
    "compound-string": "COc1ccc(C#Cc2cccc3cc([C@H](C)NC(=O)c4c(N)nn5cccnc45)n(-c4ccccc4)c(=O)c23)cn1",
    "RAJIδ/Raw264.7 γ IC50 (selectivity)": "X (X = 10 to <50)"
  }
]

----------
# tested-system: PI3K γ (Homo sapiens (Human))
# Sequence (P48736 whole entry): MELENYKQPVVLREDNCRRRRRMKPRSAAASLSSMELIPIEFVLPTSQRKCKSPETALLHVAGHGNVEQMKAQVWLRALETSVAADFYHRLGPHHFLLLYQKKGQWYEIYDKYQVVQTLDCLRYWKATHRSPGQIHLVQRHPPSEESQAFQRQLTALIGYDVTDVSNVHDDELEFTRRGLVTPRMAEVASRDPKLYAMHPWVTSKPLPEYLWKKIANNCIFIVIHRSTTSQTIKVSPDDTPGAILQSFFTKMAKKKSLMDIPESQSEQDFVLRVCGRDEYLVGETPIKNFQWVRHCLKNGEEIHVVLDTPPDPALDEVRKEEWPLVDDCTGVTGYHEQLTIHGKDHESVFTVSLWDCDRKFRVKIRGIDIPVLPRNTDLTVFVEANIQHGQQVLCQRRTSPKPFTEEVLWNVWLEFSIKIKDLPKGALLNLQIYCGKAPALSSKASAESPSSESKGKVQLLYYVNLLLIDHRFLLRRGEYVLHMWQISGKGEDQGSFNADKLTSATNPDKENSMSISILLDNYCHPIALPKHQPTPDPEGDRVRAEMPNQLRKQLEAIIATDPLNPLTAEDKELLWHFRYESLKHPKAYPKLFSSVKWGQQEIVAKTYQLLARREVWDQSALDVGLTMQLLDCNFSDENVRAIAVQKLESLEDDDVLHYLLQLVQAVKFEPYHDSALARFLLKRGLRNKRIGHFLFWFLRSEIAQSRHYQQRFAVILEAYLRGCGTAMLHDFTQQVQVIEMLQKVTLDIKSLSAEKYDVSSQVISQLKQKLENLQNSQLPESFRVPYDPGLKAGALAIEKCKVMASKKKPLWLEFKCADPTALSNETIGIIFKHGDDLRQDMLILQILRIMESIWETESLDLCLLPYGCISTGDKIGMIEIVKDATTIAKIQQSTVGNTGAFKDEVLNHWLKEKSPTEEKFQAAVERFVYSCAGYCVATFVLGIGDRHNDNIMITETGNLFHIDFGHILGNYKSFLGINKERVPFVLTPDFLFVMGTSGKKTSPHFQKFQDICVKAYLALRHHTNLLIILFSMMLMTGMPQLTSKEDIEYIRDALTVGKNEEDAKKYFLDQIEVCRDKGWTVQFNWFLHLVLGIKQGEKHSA
Catalogue of IC50 readings, one per entry.

Solved entries (count: 3):
[
  {
    "molecule": "C[C@H](NC(=O)c1c(N)nn2cccnc12)c1cc2cccc(C#CC3CC3)c2c(=O)n1C1CC1 [Compound 24]",
    "tested-system": "PI3K γ (Homo sapiens (Human))",
    "measured-property": "IC50",
    "reported-result": "1000 to 5000 nM"
  },
  {
    "molecule": "C[C@H](NC(=O)c1c(N)nn2cccnc12)c1cc2cccc(C#Cc3ccnn3C)c2c(=O)n1-c1ccccc1 [Compound 73]",
    "tested-system": "PI3K γ (Homo sapiens (Human))",
    "measured-property": "IC50",
    "reported-result": "100 to 500 nM"
  },
  {
    "molecule": "C[C@H](NC(=O)c1c(N)nn2cccnc12)c1cc2cccc(C#CCO)c2c(=O)n1-c1ccccc1 [Compound 13]",
    "tested-system": "PI3K γ (Homo sapiens (Human))",
    "measured-property": "IC50",
    "reported-result": "1 to 100 nM"
  }
]

input: Which IC50 is reported with PI3K γ (Homo sapiens (Human)) for this entry: C[C@H](NC(=O)c1c(N)nn2cccnc12)c1cc2cccc(C#CCN(C)C)c2c(=O)n1-c1ccccc1 [Compound 57] ?
output: 500 to 1000 nM

input: Which IC50 is reported with PI3K γ (Homo sapiens (Human)) for this entry: C#Cc1cccc2nc([C@H](C)NC(=O)c3nccnc3N)n(-c3ccccc3)c(=O)c12 [Compound 47] ?
output: 1 to 100 nM

input: Which IC50 is reported with PI3K γ (Homo sapiens (Human)) for this entry: Cc1ccnc2c(C(=O)N[C@@H](C)c3cc4cccc(C#Cc5cnn(C)c5)c4c(=O)n3-c3ccccc3)c(N)nn12 [Compound 102] ?
output: 100 to 500 nM

input: Which IC50 is reported with PI3K γ (Homo sapiens (Human)) for this entry: C[C@H](NC(=O)c1c(N)nn2cccnc12)c1cc2cccc(C#Cc3cocn3)c2c(=O)n1-c1ccccc1 [Compound 66] ?
output: 1 to 100 nM

input: Which IC50 is reported with PI3K γ (Homo sapiens (Human)) for this entry: Cc1ccccc1-n1c([C@H](C)NC(=O)c2c(N)nn3cccnc23)cc2cccc(C#Cc3cnn(C)c3)c2c1=O [Compound 101] ?
output: 1 to 100 nM

input: Which IC50 is reported with PI3K γ (Homo sapiens (Human)) for this entry: C[C@H](NC(=O)c1c(N)nn2cccnc12)c1cc2cccc(N)c2c(=O)n1-c1ccccc1 [Compound 109] ?
output: 1 to 100 nM

input: Which IC50 is reported with PI3K γ (Homo sapiens (Human)) for this entry: C#Cc1cccc2nc([C@H](C)NC(=O)c3c(N)nn4cccnc34)n(-c3ccccc3)c(=O)c12 [Compound 46] ?
output: 1 to 100 nM

input: Which IC50 is reported with PI3K γ (Homo sapiens (Human)) for this entry: C[C@H](NC(=O)c1c(N)nn2cccnc12)c1cc2cccc(C#Cc3cnn(C)c3)c2c(=O)n1-c1cccc(F)c1 [Compound 93] ?
output: 1 to 100 nM

----------
# tested-system: PI3K α (Homo sapiens (Human), UniProt P42336)
# Sequence (P42336 whole entry): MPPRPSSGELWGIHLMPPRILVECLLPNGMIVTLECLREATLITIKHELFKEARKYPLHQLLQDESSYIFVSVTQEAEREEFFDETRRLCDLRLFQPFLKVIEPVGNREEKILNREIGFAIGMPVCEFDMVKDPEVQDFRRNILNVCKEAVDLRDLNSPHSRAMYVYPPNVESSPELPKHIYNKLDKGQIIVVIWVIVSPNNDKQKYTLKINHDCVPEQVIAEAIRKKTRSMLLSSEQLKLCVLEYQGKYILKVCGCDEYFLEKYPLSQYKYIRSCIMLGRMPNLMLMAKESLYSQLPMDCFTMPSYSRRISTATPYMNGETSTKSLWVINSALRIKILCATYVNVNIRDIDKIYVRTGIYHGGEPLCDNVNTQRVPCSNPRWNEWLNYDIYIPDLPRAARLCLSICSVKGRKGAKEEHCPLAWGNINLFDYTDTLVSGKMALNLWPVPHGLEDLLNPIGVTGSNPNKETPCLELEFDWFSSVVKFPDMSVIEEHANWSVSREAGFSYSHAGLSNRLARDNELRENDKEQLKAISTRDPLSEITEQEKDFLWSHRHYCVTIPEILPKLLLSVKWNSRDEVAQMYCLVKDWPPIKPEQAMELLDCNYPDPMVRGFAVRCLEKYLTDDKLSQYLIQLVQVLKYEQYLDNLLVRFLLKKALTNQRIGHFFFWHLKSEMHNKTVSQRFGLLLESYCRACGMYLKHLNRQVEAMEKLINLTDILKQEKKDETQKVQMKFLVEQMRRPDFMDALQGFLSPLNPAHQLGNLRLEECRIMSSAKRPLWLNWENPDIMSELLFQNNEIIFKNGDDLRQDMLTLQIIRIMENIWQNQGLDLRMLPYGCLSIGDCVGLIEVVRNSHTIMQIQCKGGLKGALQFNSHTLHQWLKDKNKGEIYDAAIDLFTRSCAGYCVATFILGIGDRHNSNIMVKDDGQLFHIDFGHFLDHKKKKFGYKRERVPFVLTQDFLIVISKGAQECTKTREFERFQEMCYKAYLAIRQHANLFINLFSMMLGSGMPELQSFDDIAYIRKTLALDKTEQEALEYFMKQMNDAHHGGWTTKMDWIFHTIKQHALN
# Sequence (P27986 whole entry partner): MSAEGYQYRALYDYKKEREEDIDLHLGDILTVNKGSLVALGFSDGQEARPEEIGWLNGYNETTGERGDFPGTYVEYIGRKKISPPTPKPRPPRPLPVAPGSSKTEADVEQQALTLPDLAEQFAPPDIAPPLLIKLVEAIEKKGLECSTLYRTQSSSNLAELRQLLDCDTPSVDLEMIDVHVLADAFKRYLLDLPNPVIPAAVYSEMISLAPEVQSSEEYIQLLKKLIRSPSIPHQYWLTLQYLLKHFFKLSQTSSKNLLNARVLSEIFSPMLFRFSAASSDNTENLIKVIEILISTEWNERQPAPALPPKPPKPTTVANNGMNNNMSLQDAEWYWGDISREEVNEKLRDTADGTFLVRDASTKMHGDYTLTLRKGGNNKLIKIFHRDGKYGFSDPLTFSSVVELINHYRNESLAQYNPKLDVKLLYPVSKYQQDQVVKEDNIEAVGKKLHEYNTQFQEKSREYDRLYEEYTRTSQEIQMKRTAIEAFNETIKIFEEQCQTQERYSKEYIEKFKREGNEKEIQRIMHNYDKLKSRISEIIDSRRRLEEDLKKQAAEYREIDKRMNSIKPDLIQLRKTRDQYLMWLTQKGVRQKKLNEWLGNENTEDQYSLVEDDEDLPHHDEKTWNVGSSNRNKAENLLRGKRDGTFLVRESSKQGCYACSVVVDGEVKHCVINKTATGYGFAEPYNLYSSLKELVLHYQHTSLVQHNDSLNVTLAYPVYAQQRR
pIC50: −log10 of the molar value.
Catalogue of pIC50 readings, one per entry.

[
  {
    "molecule": "C[C@H](NC(=O)c1c(N)nn2cccnc12)c1cc2cccc(C#Cc3cn[nH]c3)c2c(=O)n1-c1ccccc1 [Compound 80]",
    "tested-system": "PI3K α (Homo sapiens (Human), UniProt P42336)",
    "pIC50": "5.30 to 6.00"
  },
  {
    "molecule": "C[C@H](NC(=O)c1c(N)nn2cccnc12)c1cc2cccc(C#Cc3cc[nH]c(=O)c3)c2c(=O)n1-c1ccccc1 [Compound 31]",
    "tested-system": "PI3K α (Homo sapiens (Human), UniProt P42336)",
    "pIC50": "5.00 to 5.30"
  }
]

input: Which pIC50 is reported with PI3K α (Homo sapiens (Human), UniProt P42336) for this entry: Cc1nn(C)c(C)c1C#Cc1cccc2cc([C@H](C)NC(=O)c3c(N)nn4cccnc34)n(-c3ccccc3)c(=O)c12 [Compound 37] ?
output: 5.00 to 5.30

input: Which pIC50 is reported with PI3K α (Homo sapiens (Human), UniProt P42336) for this entry: CCOC(C#Cc1cccc2cc([C@H](C)NC(=O)c3c(N)nn4cccnc34)n(-c3ccccc3)c(=O)c12)OCC [Compound 34] ?
output: 5.00 to 5.30

input: Which pIC50 is reported with PI3K α (Homo sapiens (Human), UniProt P42336) for this entry: Cc1csc(C#Cc2cccc3cc([C@H](C)NC(=O)c4c(N)nn5cccnc45)n(-c4ccccc4)c(=O)c23)n1 [Compound 60] ?
output: 5.00 to 5.30

input: Which pIC50 is reported with PI3K α (Homo sapiens (Human), UniProt P42336) for this entry: Cc1nc(C#Cc2cccc3nc([C@H](C)NC(=O)c4c(N)nn5cccnc45)n(-c4ccccc4)c(=O)c23)cs1 [Compound 63] ?
output: 5.00 to 5.30

input: Which pIC50 is reported with PI3K α (Homo sapiens (Human), UniProt P42336) for this entry: CC[C@H](NC(=O)c1c(N)nn2cccnc12)c1cc2cccc(C#Cc3cnn(C)c3)c2c(=O)n1-c1ccccc1 [Compound 105] ?
output: 5.30 to 6.00

----------
# tested-system: P-GP (P-glycoprotein 1) (Homo sapiens (Human), UniProt P08183)
# protocol-summary: P-glycoprotein inhibition
# Type: in vitro ADME
# condition-details: 10 uM; read-out: PGP Inhibition @ 10 uM
measured-property: inhibition at 10 µM (%)
Your answer should be a plain number; it is taken to be in %.

input: Which inhibition at 10 µM is reported with P-GP (P-glycoprotein 1) (Homo sapiens (Human), UniProt P08183) for this entry: C[C@H](NC(=O)c1c(N)nn2cccnc12)c1cc2cccc(C#Cc3cnn(C)c3)c2c(=O)n1-c1ccccc1 ?
output: 98
